# System: various strains of bacteria
# assay-summary: Antimicrobial potency: bacterial growth inhibition by OD600 (Antibacterial assay 1)
# Type: cell-based
# study-conditions: read-out: Antibacterial assay 1 (MITC95)
Reported MIC values for the following compounds.
Reply with just the number (in µM).

Example cases with answers are listed next.
>>> df
                                 mol_smiles  experimental_readout  units  observed
0  O=C(CCCOc1ccc(NS(=O)(=O)c2ccc(Oc3ccc(Cl)cc3)nc2)c(C(=O)O)c1)Nc1ccc(NS(=O)(=O)c2ccc(Oc3ccc(Cl)cc3)nc2)c(C(=O)O)c1                   MIC     µM    0.0122
1  O=C(COc1ccc(NS(=O)(=O)c2cnn(-c3ccc(Cl)cc3)c2)c(C(O)O)c1)Nc1ccc(NC(=O)C(=O)NCc2ccc(Cl)cc2)c(C(=O)O)c1                   MIC     µM    0.0978
2  CCCCc1ccc(S(=O)(=O)Nc2ccc(NC(=O)C[C@H](C)NC(=O)c3ccc(NS(=O)(=O)c4ccc(CCCC)cc4)c(C(O)O)c3)cc2C(=O)O)cc1                   MIC     µM     0.782

QUERY: Using the record for CCCCc1ccc(S(=O)(=O)Nc2ccc(NC(=O)CCCOc3ccc(NS(=O)(=O)c4sc(-c5ccccc5)nc4C)c(C(=O)O)c3)cc2C(=O)O)cc1 , state its measured MIC.
RESULT: 0.0173
